Catalogue of molecules with associated PD-L1 MFI at 33.3 nM
Target: huPD-L1 (Homo sapiens, UniProt Q9NZQ7)
Sequence (Q9NZQ7 19-290): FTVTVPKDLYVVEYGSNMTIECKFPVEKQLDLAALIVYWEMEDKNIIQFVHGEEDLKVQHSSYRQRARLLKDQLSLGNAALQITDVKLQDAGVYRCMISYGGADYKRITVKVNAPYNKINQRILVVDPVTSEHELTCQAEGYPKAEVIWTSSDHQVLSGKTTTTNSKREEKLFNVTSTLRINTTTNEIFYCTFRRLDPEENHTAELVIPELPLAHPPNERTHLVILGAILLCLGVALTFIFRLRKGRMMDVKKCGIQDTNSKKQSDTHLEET
Assay: Flow binding to CHO cells stably expressing PD-L1
Parameters: huCTLA4 and huPD-L1, full-length mammalian surface expression constructs were generated; expressed in transfected cells; host or cells: CHO cells, lentiviral transduction, sorted to >98% purity
Conditions: Table E10; 33.3 nM; CHO cells stably expressing PD-L1
The answer should be a number; do not append a unit.

# molecule, PD-L1 MFI at 33.3 nM
data = [
    ("Q27H/E35D/M47I (protein) VIHVTKEVKEVATLSCGHNVSVEELAHTRIYWQKDKKMVLTMMSGDINIWPEYKNRTIFDITNNLSIVILALRPSDEGTYECVVLKYEKDAFKREHLAEVTLSVKAD", 3424),
    ("H18Y/E35D/M47V/N48K (protein) VIHVTKEVKEVATLSCGYNVSVEELAQTRIYWQKDKKMVLTMMSGDVKIWPEYKNRTIFDITNNLSIVILALRPSDEGTYECVVLKYEKDAFKREHLAEVTLSVKAD", 6462),
    ("E35D/D46E (protein) VIHVTKEVKEVATLSCGHNVSVEELAQTRIYWQKDKKMVLTMMSGEMNIWPEYKNRTIFDITNNLSIVILALRPSDEGTYECVVLKYEKDAFKREHLAEVTLSVKAD", 3757),
    ("E35D/M47I/N48K/I61F (protein) VIHVTKEVKEVATLSCGHNVSVEELAQTRIYWQKDKKMVLTMMSGDIKIWPEYKNRTIFDFTNNLSIVILALRPSDEGTYECVVLKYEKDAFKREHLAEVTLSVKAD", 5627),
    ("E35D/M47V (protein) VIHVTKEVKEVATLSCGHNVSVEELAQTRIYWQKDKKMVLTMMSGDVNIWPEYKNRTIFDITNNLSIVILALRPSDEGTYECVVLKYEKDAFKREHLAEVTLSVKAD", 2935),
]

Fill in the blank: the reported PD-L1 MFI at 33.3 nM of E35D/N48K/L72V (protein) VIHVTKEVKEVATLSCGHNVSVEELAQTRIYWQKDKKMVLTMMSGDMKIWPEYKNRTIFDITNNLSIVILAVRPSDEGTYECVVLKYEKDAFKREHLAEVTLSVKAD is ____.
3031

Fill in the blank: the reported PD-L1 MFI at 33.3 nM of E35D/M47L/A71G/L85M (protein) VIHVTKEVKEVATLSCGHNVSVEELAQTRIYWQKDKKMVLTMMSGDLNIWPEYKNRTIFDITNNLSIVILGLRPSDEGTYECVVMKYEKDAFKREHLAEVTLSVKAD is ____.
8312

Fill in the blank: the reported PD-L1 MFI at 33.3 nM of M47I/A71G (protein) VIHVTKEVKEVATLSCGHNVSVEELAQTRIYWQKEKKMVLTMMSGDINIWPEYKNRTIFDITNNLSIVILGLRPSDEGTYECVVLKYEKDAFKREHLAEVTLSVKAD is ____.
5097

meta.source: patent US20220177587A1
